- Organism: Homo sapiens
- Assay details: Intensity calculated on a weight basis relative to an 85500 ppm sucrose solution at a concentration of 250 ppm (mean value)
- Type: functional
Assay readout: IW
Numbers only.

Dear colleague, could you send me IW for each of the items below? Thanks.
1. COc1ccc(CCC(=O)c2c(O)cc(OC(CCCO)C(=O)[O-])cc2O)cc1O.[Na+] (stereo not given)
2. COc1ccc(CCC(=O)c2c(O)cc(OCCC(O)C(=O)[O-])cc2O)cc1O.[Na+] (stereo not given)
3. COc1ccc(CCC(=O)c2c(O)cc(OCCNS(=O)(=O)[O-])cc2O)cc1O.[K+]
4. O=C([O-])COc1cc(O)c(C(=O)CCc2ccc(Cl)c(O)c2)c(O)c1.[Na+]
5. O=C(O)CCc1ccc(O)c(O)c1 [DIHYDROCAFFEIC ACID]

Completion:
34
440
350
27
250

====

- Species: Homo sapiens
- Assay details: Percentage of judgments reporting an aftertaste at a concentration of 250 ppm and character thereof
- Type: functional
Record form. Attribute: Judgments. Fill in for each entry.
Give bare numbers.

Prompt: Reported Judgments, compound COc1ccc(CCC(=O)c2c(O)cc(OC(CCCO)C(=O)[O-])cc2O)cc1O.[Na+] (stereo not given) : ____
Completion: 0

Prompt: Now the same for O=C([O-])COc1cc(O)c(C(=O)CCc2ccc(Cl)c(O)c2)c(O)c1.[Na+]
Completion: 0

Prompt: Here is the next compound: COc1ccc(CCC(=O)c2c(O)cc(OCCNS(=O)(=O)[O-])cc2O)cc1O.[K+]
Completion: 100

# batch: return Judgments for each of the 2 compounds below
1. O=C(O)CCc1ccc(O)c(O)c1 [DIHYDROCAFFEIC ACID]
2. COc1ccc(CCC(=O)c2c(O)cc(OCCC(O)C(=O)[O-])cc2O)cc1O.[Na+] (stereo not given)

Completion:
50
100

Numbers sourced from ChEMBL document CHEMBL1121813.
